Target: HIV-1 Env of ZM249.1 (HIV-1)
Assay: cell-based or functional assay
measured quantity: neutralization IC50

# count of solved cases: 2
Complete the entry with neutralization IC50 for CAP256-VRC26.12 (antibody, V domains shown) VH: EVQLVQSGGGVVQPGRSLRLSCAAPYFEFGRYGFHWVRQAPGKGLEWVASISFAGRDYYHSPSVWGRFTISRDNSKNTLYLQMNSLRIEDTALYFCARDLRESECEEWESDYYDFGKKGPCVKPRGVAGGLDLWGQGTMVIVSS VL: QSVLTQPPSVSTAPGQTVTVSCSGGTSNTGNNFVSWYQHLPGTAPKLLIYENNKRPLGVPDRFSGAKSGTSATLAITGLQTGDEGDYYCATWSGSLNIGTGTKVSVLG
> 50 µg/mL

Give reported neutralization IC50 value for CAP256-VRC26.01 (antibody, V domains shown) VH: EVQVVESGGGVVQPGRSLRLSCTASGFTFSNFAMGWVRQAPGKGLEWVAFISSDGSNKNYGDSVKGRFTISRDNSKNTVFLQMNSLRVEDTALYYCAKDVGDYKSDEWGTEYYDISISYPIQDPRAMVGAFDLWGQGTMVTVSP VL: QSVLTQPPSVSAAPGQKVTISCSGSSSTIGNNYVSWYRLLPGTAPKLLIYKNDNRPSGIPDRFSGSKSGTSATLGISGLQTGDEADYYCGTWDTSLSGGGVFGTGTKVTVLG
> 50 µg/mL

We now examine a further binder.
Consider the binder CAP256-VRC26.09 (antibody, V domains shown) VH: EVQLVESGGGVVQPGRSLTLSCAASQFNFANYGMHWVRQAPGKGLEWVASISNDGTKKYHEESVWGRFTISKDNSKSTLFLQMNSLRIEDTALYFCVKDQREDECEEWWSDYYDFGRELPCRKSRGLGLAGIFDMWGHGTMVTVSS VL: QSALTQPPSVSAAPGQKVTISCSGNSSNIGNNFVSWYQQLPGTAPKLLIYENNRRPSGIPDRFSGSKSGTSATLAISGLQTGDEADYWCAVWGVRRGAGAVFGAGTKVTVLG . State its measured neutralization IC50.
0.01 µg/mL
